Provenance of the data: patent US6613747B2

Test system: H. influenzae ATCC49247
assay-name: MIC, microdilution broth method (NCCLS)
Type: cell-based
conditions: E: H. influenzae ATCC49247, 35° C., 16-20 hours
endpoint: MIC (µg/mL)
Numeric answer only, unit µg/mL assumed.

Solved cases (3 shown):
compound | endpoint | result-units | reported-result
CC[C@H]1OC(=O)[C@H](C)C(=O)[C@H](C)[C@@H](O[C@@H]2O[C@H](C)C[C@H](N(C)C)[C@H]2O)[C@](C)(OC(=O)NC/C=C/c2cccc(-n3cncn3)n2)C[C@@H](C)C(=O)[C@H](C)[C@H]2NC(=O)O[C@@]21C | MIC | µg/mL | 8
CC[C@H]1OC(=O)[C@H](C)C(=O)[C@H](C)[C@@H](O[C@@H]2O[C@H](C)C[C@H](N(C)C)[C@H]2O)[C@](C)(OC(=O)NCC#Cc2ccccc2)C[C@@H](C)C(=O)[C@H](C)[C@H]2NC(=O)O[C@@]21C | MIC | µg/mL | 8
CC[C@H]1OC(=O)[C@H](C)C(=O)[C@H](C)[C@@H](O[C@@H]2O[C@H](C)C[C@H](N(C)C)[C@H]2O)[C@](C)(OC(=O)NCc2ccc(-n3cccn3)c(OC)c2)C[C@@H](C)C(=O)[C@H](C)[C@H]2NC(=O)O[C@@]21C | MIC | µg/mL | 8

Could you tell me which MIC is on file for "CC[C@H]1OC(=O)[C@H](C)C(=O)[C@H](C)[C@@H](O[C@@H]2O[C@H](C)C[C@H](N(C)C)[C@H]2O)[C@](C)(OC(=O)NCCNCc2ccc(-c3ncccn3)cc2)C[C@@H](C)C(=O)[C@H](C)[C@H]2NC(=O)O[C@@]21C" ?
16

Okay, and CCC1OC(=O)C(C)C(=O)C(C)C(OC2OC(C)CC(N(C)C)C2O)C(C)(OC(=O)NCC=Cc2ccc(-c3cccnn3)cc2)CC(C)C(=O)C(C)C2NC(=O)OC12C (stereo not shown) ?
1

Okay, and "CC[C@H]1OC(=O)[C@H](C)C(=O)[C@H](C)[C@@H](O[C@@H]2O[C@H](C)C[C@H](N(C)C)[C@H]2O)[C@](C)(OC(=O)NCCOCc2ccc(-c3ncccn3)cc2)C[C@@H](C)C(=O)[C@H](C)[C@H]2NC(=O)O[C@@]21C" ?
4

Okay, and "CC[C@H]1OC(=O)[C@H](C)C(=O)[C@H](C)[C@@H](O[C@@H]2O[C@H](C)C[C@H](N(C)C)[C@H]2O)[C@](C)(OC(=O)NC/C=C/C=C/c2ccc(-n3cccn3)cc2)C[C@@H](C)C(=O)[C@H](C)[C@H]2NC(=O)O[C@@]21C" ?
8
